assay: Stability in the presence of fetal calf serum; format: in vitro ADME; settings: bovine; fetal calf serum 95%, 37° C., 6 h; read-out: Relative concentration of primaquine (PQ) from derivative
# metabolised at 6 h annotations

>  <compound>
COc1cc(NC(C)CCCNC(=O)[C@@H]2CCC(=O)N2)c2ncccc2c1 (stereo partly drawn) [pGLU-PQ, N-(α-L-pyroglutamyl)primaquine]

>  <metabolised at 6 h (%)>
0

$$$$
>  <compound>
COc1cc(NC(C)CCCNC(=O)CC[C@H](N)C(=O)O)c2ncccc2c1 (stereo partly drawn) [gGLU-PQ, N-(γ-L-glutamyl)primaquine]

>  <metabolised at 6 h (%)>
4

$$$$

----------
Experiment: Hydrolysis in the presence of lysosomal enzymes
Format: in vitro ADME, rat
Details: rat, liver lysosomal enzymes, pH 4.5, 37° C., 24 h, read-out: Relative concentration of compound (% of initial concentration)
Method: The compounds, at a final concentration of 15 μg/ml, are incubated in 50 mM acetate buffer, pH 4.5, at 37° C. in the presence of 5 mM cysteine and a lysosomal enzyme fraction (0.15 mg protein/ml) purified from rat liver. […] At intervals of time, corresponding samples are taken from the incubation. […] A volume of 20 μl is withdrawn and analyzed directly by HPLC under the standard conditions. […] analyzed by spectrophotometry after HPLC. […] (PQ) and derivatives (PQX) in terms of the incubation time, expressed as […]
Below, each entry is listed alongside its reported remaining at 24 h.

>  <molecule>
COc1cc(NC(C)CCCNC(=O)CC[C@H](N)C(=O)O)c2ncccc2c1 (stereo partly drawn) [gGLU-PQ, N-(γ-L-glutamyl)primaquine]

>  <remaining at 24 h>
105%

$$$$
>  <molecule>
COc1cc(NC(C)CCCNC(=O)[C@@H]2CCC(=O)N2)c2ncccc2c1 (stereo partly drawn) [pGLU-PQ, N-(α-L-pyroglutamyl)primaquine]

>  <remaining at 24 h>
76%

$$$$
>  <molecule>
COc1cc(NC(C)CCCN)c2ncccc2c1 (stereo not drawn) [Primaquine, reference compound]

>  <remaining at 24 h>
68%

$$$$

----------
Assay: Stability in the presence of fetal calf serum
Type: in vitro ADME
Details: bovine; fetal calf serum 95%, 37° C., 2 h; read-out: Relative concentration of compound (% of initial concentration)
Experimental: The influence of serum on the stability of primaquine (PQ) and its derivatives is determined by incubating these compounds at 37° C. at a concentration of 100 μg/ml in 95% fetal calf serum (FCS, Flow Laboratories) or human serum and phosphate-buffered saline (0.15 M PBSA, pH 7.2) as a control. All the solutions are sterilized by filtration on a Millipore filter (Millex GV) of porosity 0.20 μm. […] fetal calf serum (95% final) and then analyzed by spectrophotometry after […]
# maps each entry to its remaining at 2 h

>  <molecule>
COc1cc(NC(C)CCCNC(=O)CC[C@H](N)C(=O)O)c2ncccc2c1 (stereo partly drawn) [gGLU-PQ, N-(γ-L-glutamyl)primaquine]

>  <remaining at 2 h [%]>
95

$$$$
>  <molecule>
COc1cc(NC(C)CCCNC(=O)[C@@H]2CCC(=O)N2)c2ncccc2c1 (stereo partly drawn) [pGLU-PQ, N-(α-L-pyroglutamyl)primaquine]

>  <remaining at 2 h [%]>
101

$$$$

----------
tested on: Plasmodium berghei; assay: Causal prophylactic activity on OF1 mice infected with Plasmodium berghei; type: in vivo, P. berghei (ANKA), in Swiss OF1 mice; conditions: single i.v. three hours after sporozoites; mg PQ diphosphate equivalent/kg
value kind: ED100, totally curative dose

>  <compound>
COc1cc(NC(C)CCCN)c2ncccc2c1 (centres unmarked) [Primaquine, reference compound]

>  <obs value>
TOX

$$$$
>  <compound>
COc1cc(NC(C)CCCNC(=O)CC[C@H](N)C(=O)O)c2ncccc2c1 (some centres unmarked)

>  <obs value>
24.2 (9.8) mg/kg

$$$$
>  <compound>
COc1cc(NC(C)CCCNC(=O)[C@@H]2CCC(=O)N2)c2ncccc2c1 (some centres unmarked)

>  <obs value>
21.8 (5.7) mg/kg

$$$$
>  <compound>
COc1cc(NC(C)CCCNC(=O)C[C@H](N)C(=O)O)c2ncccc2c1 (some centres unmarked)

>  <obs value>
30.6 (5.7) mg/kg

$$$$
>  <compound>
COc1cc(NC(C)CCCNC(=O)[C@@H](N)CC(=O)O)c2ncccc2c1 (some centres unmarked)

>  <obs value>
31.1 (9.2) mg/kg

$$$$
